Data provenance: patent US20130178453A1

pEC50 overview
- TARGET_OF_ASSAY: hCB1 (Homo sapiens, UniProt P21554)
- Sequence (P21554 whole entry): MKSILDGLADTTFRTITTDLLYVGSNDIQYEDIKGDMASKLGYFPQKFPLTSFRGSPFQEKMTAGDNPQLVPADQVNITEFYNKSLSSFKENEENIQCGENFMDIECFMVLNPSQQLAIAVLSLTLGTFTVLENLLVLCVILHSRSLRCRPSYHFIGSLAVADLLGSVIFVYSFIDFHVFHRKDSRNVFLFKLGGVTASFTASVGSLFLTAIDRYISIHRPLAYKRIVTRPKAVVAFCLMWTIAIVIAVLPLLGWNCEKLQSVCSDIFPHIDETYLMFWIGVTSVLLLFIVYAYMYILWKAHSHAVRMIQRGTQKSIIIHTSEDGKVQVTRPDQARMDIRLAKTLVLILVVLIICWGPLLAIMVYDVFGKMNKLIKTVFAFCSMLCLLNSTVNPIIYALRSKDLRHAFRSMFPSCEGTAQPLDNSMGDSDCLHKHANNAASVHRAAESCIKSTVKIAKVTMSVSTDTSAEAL
- PROTOCOL_DESCRIPTION: hCB1 GTPγS agonist assay (HEK-293 membranes)
- Type: biochemical
pEC50: −log10 of the molar value.
REPORTED_ENDPOINT: pEC50

INSERT INTO measurements (smiles_input, target_of_assay, reported_endpoint, result) VALUES
  ('CCCCCn1c(C)c(C(=O)c2cc3ccsc3n2CCC)c2ccccc21', 'hCB1 (Homo sapiens, UniProt P21554)', 'pEC50', '6.00 to 7.00'),
  ('CCCn1cc(C(=O)c2cc3ccsc3n2CC)c2ccccc21', 'hCB1 (Homo sapiens, UniProt P21554)', 'pEC50', '6.00 to 7.00'),
  ('CCn1c(C(=O)c2cn(CC3CCOCC3)c3ccccc23)cc2ccsc21', 'hCB1 (Homo sapiens, UniProt P21554)', 'pEC50', '> 7.00'),
  ('CCCn1c(C(=O)c2c(C)n(CC3CCOCC3)c3ccccc23)cc2ccsc21', 'hCB1 (Homo sapiens, UniProt P21554)', 'pEC50', '6.00 to 7.00'),
  ('CCCn1c(C(=O)c2c(C)n(CCC3CCOCC3)c3ccccc23)cc2ccsc21', 'hCB1 (Homo sapiens, UniProt P21554)', 'pEC50', '6.00 to 7.00'),
  ('CCCn1cc(C(=O)c2cc3ccsc3n2CCC)c2cccnc21', 'hCB1 (Homo sapiens, UniProt P21554)', 'pEC50', '6.00 to 7.00'),
  ('CCCn1c(C(=O)c2cn(CC3CCOCC3)c3ccccc23)cc2ccsc21', 'hCB1 (Homo sapiens, UniProt P21554)', 'pEC50', '> 7.00'),
  ('CCCn1cc(C(=O)c2cc3ccsc3n2CC)c2cccnc21', 'hCB1 (Homo sapiens, UniProt P21554)', 'pEC50', '6.00 to 7.00'),
  ('CCCn1cc(C(=O)c2cc3ccsc3n2CCC)c2ccccc21', 'hCB1 (Homo sapiens, UniProt P21554)', 'pEC50', '6.00 to 7.00');
